pIC50: −log10 of the molar value.
Literature survey of pIC50 (system: Aldo-keto reductase family 1 member B1 (Homo sapiens, UniProt P15121)).
experimentalEndpoint: pIC50

[A] O=C(O)CCCc1nc(-c2ccccn2)no1
[B] O=C(O)COc1cc(Cl)ccc1C(=O)NCc1c(F)cc(I)cc1F
[C] O=C(O)CSc1nnc(-c2ccc([N+](=O)[O-])o2)o1
[D] CCOC(=O)C1CN(Cc2ccccc2Cl)C(=O)C1=O (centres undefined)
[Q] Please produce an ascending ranking of these compounds based on pIC50. Answer by listing the labels in the requested order.
[A] A, C, D, B

====

IC50 for Aldo-keto reductase family 1 member B1 (Homo sapiens, UniProt P15121) - collated from the literature.
experimentalEndpoint: IC50 (nM)

[A] Nc1cccc2c3c(ccc12)S(=O)(=O)N(CC(=O)O)C3=O
[B] O=C(O)CN1C(=O)c2c(ccc3ccccc23)S1(=O)=O
[Q] // compare measured IC50, left A , right B , return larger Bench note: the answer is the label of the chosen record.
[A] A

[I] O=C(O)CN1C(=O)c2c(ccc3c([N+](=O)[O-])cccc23)S1(=O)=O
[II] O=C(O)COC(=O)c1cc2ccccc2c2c1S(=O)(=O)N(CC(=O)O)C2=O
[Q] Of the two listed items, which has the higher IC50? First: I Second: II Response format: the label of the selected entry.
[A] I
(I: 180000 nM, II: 550 nM)

[I] O=C(O)COc1cc(Cl)ccc1C(=O)NCc1ccc(Br)cc1F
[II] O=c1ccc(S(=O)(=O)c2cc3cc(Cl)ccc3o2)n[nH]1
[Q] Select the item whose IC50 value is smaller, choosing between I and II . Indicate which entry you chose by stating its label.
[A] II

[I] O=C(O)CCCc1nc(-c2cccc([N+](=O)[O-])c2)[n-][o+]1
[II] O=C(O)COc1cc(Cl)ccc1C(=O)NCc1c(F)c(F)c(Br)c(F)c1F
[III] O=C(O)CN1C(=O)c2c(ccc3cccc([N+](=O)[O-])c23)S1(=O)=O
[Q] Arrange the 3 molecules from largest to smallest IC50. The response must list the labels following the requested ordering.
[A] III, I, II
